# TARGET UNDER TEST: Proteinase-activated receptor 1 (Homo sapiens, UniProt P25116)
# Sequence (P25116 whole entry): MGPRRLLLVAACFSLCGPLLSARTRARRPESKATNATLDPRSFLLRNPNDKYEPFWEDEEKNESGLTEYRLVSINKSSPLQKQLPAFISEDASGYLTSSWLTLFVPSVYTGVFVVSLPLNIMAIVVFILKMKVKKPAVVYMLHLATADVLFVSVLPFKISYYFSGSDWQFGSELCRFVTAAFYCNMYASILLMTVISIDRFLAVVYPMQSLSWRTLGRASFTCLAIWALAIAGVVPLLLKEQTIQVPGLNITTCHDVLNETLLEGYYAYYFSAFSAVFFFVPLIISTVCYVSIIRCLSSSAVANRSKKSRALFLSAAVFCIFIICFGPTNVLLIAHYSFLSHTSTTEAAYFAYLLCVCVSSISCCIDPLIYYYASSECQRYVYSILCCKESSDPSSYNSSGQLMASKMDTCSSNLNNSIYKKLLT
Non-standard residues stand in square brackets, D forms with d. Residues, ends and D or L forms follow the SMILES beside them. *: point of attachment. Phe(4-guanidino) = N=C(N)Nc1ccc(C[C@H](N)C(=O)O)cc1; Phe(4-F) = N[C@@H](Cc1ccc(F)cc1)C(=O)O; X5 = O=C(c1cc2ccccc2[nH]1)*; X1 = O=C(c1ccoc1)*
Each entry below carries its recorded pIC50.
A value of pIC50 is the negative decimal logarithm of a concentration given in moles per litre.

Below: 2 compounds and their reported pIC50.
COMPOUND	MEASURED METRIC	REPORTED RESULT
CC(=O)N(C(=O)/C=C/c1ccccc1)[C@@H](Cc1ccc(F)cc1)C(=O)NC(=O)NCCC[C@H](NC(=O)[C@H](CC(C)C)NC(=O)[C@@H](N)CCCN=C(N)N)C(=O)O	pIC50	5.98
CC(C)C[C@H](NC(=O)[C@H](Cc1ccc(NC(=N)N)cc1)NC(=O)[C@H](Cc1ccc(F)cc1)NC(=O)c1ccoc1)C(=O)N[C@@H](CCCN=C(N)N)C(N)=O (X1-[Phe(4-F)][Phe(4-guanidino)]LR-NH2)	pIC50	7.54

Reported pIC50 (Proteinase-activated receptor 1 (Homo sapiens, UniProt P25116)) for entry CC(C)C[C@H](NC(=O)[C@H](Cc1ccc(NC(=N)N)cc1)NC(=O)[C@H](Cc1ccc(F)cc1)NC(=O)c1cc2ccccc2[nH]1)C(=O)N[C@@H](CCCN=C(N)N)C(N)=O (X5-[Phe(4-F)][Phe(4-guanidino)]LR-NH2) is 7.62
